- System: Staphylococcus aureus MS-8710
- assay_overview: antimicrobial activity, broth dilution method
- Type: cell-based
- run_conditions: Staphylococcus aureus, MS8710, Staphylococcus aureus MS-8710, drug-resistant clinical isolate; read-out: minimum inhibitory concentration (MIC)
reported_endpoint: MIC (µg/mL)
Numeric answer only, unit µg/mL assumed.

Here's what some known entries look like.
compound	experimental_target	MIC / µg/mL
CCC1OC(=O)CC(O)C(C)C(OC2OC(C)C(OC3CC(C)(O)C(OC(=O)CSc4ccc(Cl)cc4)C(C)O3)C(N(C)C)C2O)C(CC=O)CC(C)C(=O)C=CC(C)=CC1COC1OC(C)C(O)C(OC)C1OC (centres unmarked)	Staphylococcus aureus MS-8710	12.5
CCC1OC(=O)CC(O)C(C)C(OC2OC(C)C(OC3CC(C)(O)C(OC(=O)Cc4ccc([N+](=O)[O-])cc4)C(C)O3)C(N(C)C)C2O)C(CC=O)CC(C)C(=O)C=CC(C)=CC1COC1OC(C)C(O)C(OC)C1OC (centres unmarked)	Staphylococcus aureus MS-8710	6.25

Please list MIC recorded for the compound CCC1OC(=O)CC(O)C(C)C(OC2OC(C)C(OC3CC(C)(O)C(OC(=O)COc4ccc5ccccc5c4)C(C)O3)C(N(C)C)C2O)C(CC=O)CC(C)C(=O)C=CC(C)=CC1COC1OC(C)C(O)C(OC)C1OC (centres unmarked)
25

====

Reported MIC by item:
- Tested on: Mycoplasma gallisepticum A-72
- assay_overview: antibacterial activity against Mycoplasma
- Type: cell-based
- run_conditions: Mycoplasmoides gallisepticum, A72; strain A-72, macrolide resistant; Eiken PPLO Medium
Numeric answer only, unit µg/mL assumed.

Here's what some known entries look like.
compound	MIC (µg/mL)
CCC1OC(=O)CC(O)C(C)C(OC2OC(C)C(OC3CC(C)(O)C(OC(=O)CSC4CCCCC4)C(C)O3)C(N(C)C)C2O)C(CC=O)CC(C)C(=O)C=CC(C)=CC1COC1OC(C)C(O)C(OC)C1OC (stereo not shown) [Compound 40, 4"-cyclohexylthioacetyltylosin]	0.157
CCC1OC(=O)CC(OC(C)=O)C(C)C(OC2OC(C)C(OC3CC(C)(O)C(OC(=O)CN(C(C)=O)c4ccccc4)C(C)O3)C(N(C)C)C2O)C(CC=O)CC(C)C(=O)C=CC(C)=CC1COC1OC(C)C(O)C(OC)C1OC (stereo not shown) [Compound 32]	0.157
CCC1OC(=O)CC(OC(C)=O)C(C)C(OC2OC(C)C(OC3CC(C)(O)C(OC(=O)C(O)c4ccccc4)C(C)O3)C(N(C)C)C2O)C(CC=O)CC(C)C(=O)C=CC(C)=CC1COC1OC(C)C(O)C(OC)C1OC (stereo not shown) [Compound 17]	0.313

Please look at the following compound next.
Give MIC; test system Mycoplasma gallisepticum A-72; compound CCC1OC(=O)CC(O)C(C)C(OC2OC(C)C(OC3CC(C)(O)C(OC(=O)CCC4CCCCC4)C(C)O3)C(N(C)C)C2O)C(CC=O)CC(C)C(=O)C=CC(C)=CC1COC1OC(C)C(O)C(OC)C1OC (stereo not drawn) [Compound 29, 4"-β-cyclohexylpropionyl tylosin]
0.313

====

- Test system: Streptococcus pyogenes MH-771
- assay_overview: antimicrobial activity, broth dilution method
- Type: cell-based
- run_conditions: Streptococcus pyogenes, MH771, Streptococcus pyogenes MH-771, drug-resistant clinical isolate; read-out: minimum inhibitory concentration (MIC)
Reported MIC by item:
Numeric answer only, unit µg/mL assumed.

Please list MIC recorded for the compound CCC1OC(=O)CC(O)C(C)C(OC2OC(C)C(OC3CC(C)(O)C(OC(=O)CSc4ccccc4)C(C)O3)C(N(C)C)C2O)C(CC=O)CC(C)C(=O)C=CC(C)=CC1COC1OC(C)C(O)C(OC)C1OC (centres unmarked) [Compound 34, 4"-phenylthioacetyltylosin]
6.25

Please list MIC recorded for the compound CCC1OC(=O)CC(OC(C)=O)C(C)C(OC2OC(C)C(OC3CC(C)(O)C(OC(=O)C(Cc4ccccc4)OC(C)=O)C(C)O3)C(N(C)C)C2O)C(CC=O)CC(C)C(=O)C=CC(C)=CC1COC1OC(C)C(O)C(OC)C1OC (centres unmarked) [Compound 27]
25

Please list MIC recorded for the compound CCC1OC(=O)CC(OC(C)=O)C(C)C(OC2OC(C)C(OC3CC(C)(O)C(OC(=O)CSCc4ccccc4)C(C)O3)C(N(C)C)C2O)C(CC=O)CC(C)C(=O)C=CC(C)=CC1COC1OC(C)C(O)C(OC)C1OC (centres unmarked) [Compound 38, 3-acetyl-4"-benzylthioacetyltylosin]
6.25

Please list MIC recorded for the compound CCC1OC(=O)CC(O)C(C)C(OC2OC(C)C(OC3CC(C)(O)C(O)C(C)O3)C(N(C)C)C2OC(C)=O)C(CC=O)CC(C)C(=O)C=CC(C)=CC1COC1OC(C)C(OC(=O)CCl)C(OC)C1OC (centres unmarked) [Compound 1, 2'-acetyl-4'"-monochloracetyltylosin]
200

Please list MIC recorded for the compound CCC(C(=O)OC1C(C)OC(OC2C(C)OC(OC3C(CC=O)CC(C)C(=O)C=CC(C)=CC(COC4OC(C)C(O)C(OC)C4OC)C(CC)OC(=O)CC(O)C3C)C(O)C2N(C)C)CC1(C)O)c1ccccc1 (stereo not drawn) [Compound 16, 4"-α-phenyl-n-butyryltylosin]
6.25

Please list MIC recorded for the compound CCC1OC(=O)CC(OC(C)=O)C(C)C(OC2OC(C)C(OC3CC(C)(O)C(OC(=O)CSc4ccncc4)C(C)O3)C(N(C)C)C2O)C(CC=O)CC(C)C(=O)C=CC(C)=CC1COC1OC(C)C(O)C(OC)C1OC (centres unmarked) [Compound 42, 3-acetyl-4"-(4-pyridyl)thioacetyltylosin]
3.13

Please list MIC recorded for the compound CCC1OC(=O)CC(OC(C)=O)C(C)C(OC2OC(C)C(OC3CC(C)(O)C(O)C(C)O3)C(N(C)C)C2O)C(CC=O)CC(C)C(=O)C=CC(C)=CC1COC1OC(C)C(O)C(OC)C1OC (centres unmarked) [3-acetyltylosin, reference compound]
200
